Field: furin cleavage Z-score. Provide a value for each of the sequences that follow.
Biological target: furin, P09958;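 also: purified furin at 1:10 enzyme:substrate in 50 mM HEPES pH 7.5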
Sequence (P09958 whole entry): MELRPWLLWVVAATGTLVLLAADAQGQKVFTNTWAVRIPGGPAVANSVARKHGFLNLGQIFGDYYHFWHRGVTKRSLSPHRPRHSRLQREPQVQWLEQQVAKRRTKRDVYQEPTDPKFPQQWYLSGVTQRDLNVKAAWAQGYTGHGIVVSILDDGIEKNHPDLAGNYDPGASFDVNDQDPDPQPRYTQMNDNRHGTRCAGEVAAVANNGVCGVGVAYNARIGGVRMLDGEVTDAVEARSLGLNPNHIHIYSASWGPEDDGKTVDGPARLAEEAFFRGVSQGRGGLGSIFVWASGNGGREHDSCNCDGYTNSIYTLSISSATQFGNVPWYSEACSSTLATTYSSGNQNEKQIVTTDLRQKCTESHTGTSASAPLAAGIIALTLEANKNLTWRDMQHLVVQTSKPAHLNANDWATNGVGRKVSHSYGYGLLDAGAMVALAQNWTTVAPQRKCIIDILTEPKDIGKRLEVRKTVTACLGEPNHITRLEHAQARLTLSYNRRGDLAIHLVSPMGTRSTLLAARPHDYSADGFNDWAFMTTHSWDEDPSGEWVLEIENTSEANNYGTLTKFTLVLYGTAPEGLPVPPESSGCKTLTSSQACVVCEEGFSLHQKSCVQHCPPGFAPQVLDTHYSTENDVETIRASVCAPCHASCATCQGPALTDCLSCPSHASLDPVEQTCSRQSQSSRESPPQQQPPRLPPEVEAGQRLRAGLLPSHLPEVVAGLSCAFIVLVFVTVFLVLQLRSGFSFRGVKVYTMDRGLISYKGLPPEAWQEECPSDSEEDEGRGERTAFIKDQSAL
Assay: furin cleavage Z-score vs untreated control; higher = more cleavage, active = 3.5 or more, inactive = 1 or less, 8 variable residues between constant flanks
Settings: 15 min
The other results are listed elsewhere or left out. No count for the full screen is at hand.
Form: value (number only, do not type unit).

response.value for CAERAPERRDAGNASASA [FS-24] (field: furin cleavage Z-score) = -0.00906

Entry CAFHIRRKRYAGNASASA [FS-651] , furin cleavage Z-score reported as 12.5

CASRHRVTRYAGNASASA [FS-1489] has a reported furin cleavage Z-score of 11.3

Recorded furin cleavage Z-score (sequence CAPLPRPRRSAGNASASA [FS-473] ): 5.07

Record CANREVPCHRAGNASASA [HC2441] , field furin cleavage Z-score: -0.276

# sequence CAANHVVKRDAGNASASA [FS-642] ; its furin cleavage Z-score = 11.8

CAATPRPRRSAGNASASA [FS-980] has a reported furin cleavage Z-score of 11.2

Lab note: CAFHIRRKRYAGNASASA [FU9] gave furin cleavage Z-score of 12.5

Form field furin cleavage Z-score, entry CADFDSVIDCAGNASASA [HC884] : -1.64

// field: furin cleavage Z-score; key: CARFPRFVNVAGNASASA [FS-2925] ; value = 3.36

response.value for CANAASLAGTAGNASASA [HC538] (field: furin cleavage Z-score) = 0.0856

In plain terms, CAEVVTSTWMAGNASASA [HC2246] has a documented furin cleavage Z-score of 0.473

// CAAICRRKRYAGNASASA [FS-396] : furin cleavage Z-score value = 13.2

The sequence identified as CAANVRRKRYAGNASASA [FS-643] registered its furin cleavage Z-score at 13.8

Please fill in: furin cleavage Z-score reported for CASRGENCGYAGNASASA [HC1505] = -1.03

// data source = the supplement of paper PMC3545927
